FYI, the data here is from patent US20220112288A1.

Target: T1, Rhesus macaque CD4-HIS (Acro Biosystems, Cat. CD4-C52H7) (rhesus macaque, UniProt P16003 26-390)
T1 construct: Bought reagent; also called Rhesus CD4; rhesus CD4-HIS; not shown: His tag
T1 sequence (P16003 26-390 limits assumed): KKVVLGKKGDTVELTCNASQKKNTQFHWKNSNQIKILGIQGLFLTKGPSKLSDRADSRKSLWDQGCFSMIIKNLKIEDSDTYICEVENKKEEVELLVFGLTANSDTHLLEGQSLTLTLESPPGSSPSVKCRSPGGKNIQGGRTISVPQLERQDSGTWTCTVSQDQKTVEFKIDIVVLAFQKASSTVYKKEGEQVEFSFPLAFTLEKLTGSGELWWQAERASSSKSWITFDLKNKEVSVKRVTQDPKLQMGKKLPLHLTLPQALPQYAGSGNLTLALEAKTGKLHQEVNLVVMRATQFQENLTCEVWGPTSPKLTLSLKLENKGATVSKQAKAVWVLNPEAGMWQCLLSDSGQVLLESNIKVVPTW
Assay: BLI Octet, mAb on anti-mouse Fc sensor, rhesus CD4-HIS 25-100 nM, 1:1 global fit;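 also: purified antibodies captured at 10 µg/mL, rhesus CD4 analyte run as a three-concentration serial dilution, irrelevant antibody as reference control, one kinetic constant set per antibody from global fitting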
reported endpoint: Kd

Find the recorded Kd belonging to 75110_01D24A (antibody, V domains shown, Tested as antibody purified from AlivaMab Mouse hybridoma supernatant (captured by anti-mouse IgG Fc)) VH: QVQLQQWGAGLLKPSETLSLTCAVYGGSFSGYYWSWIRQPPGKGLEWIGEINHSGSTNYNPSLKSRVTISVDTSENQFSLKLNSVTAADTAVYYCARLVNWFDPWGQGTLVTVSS VL: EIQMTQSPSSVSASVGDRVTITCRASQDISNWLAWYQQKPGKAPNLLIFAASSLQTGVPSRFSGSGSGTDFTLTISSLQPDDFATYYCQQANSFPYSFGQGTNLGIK and report it. 340 nM

Look up Kd: 75110_04G16A (antibody, V domains shown, Tested as antibody purified from AlivaMab Mouse hybridoma supernatant (captured by anti-mouse IgG Fc)) VH: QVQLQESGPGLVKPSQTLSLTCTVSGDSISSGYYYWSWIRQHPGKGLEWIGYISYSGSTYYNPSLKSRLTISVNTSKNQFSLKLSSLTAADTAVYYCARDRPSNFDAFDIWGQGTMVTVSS VL: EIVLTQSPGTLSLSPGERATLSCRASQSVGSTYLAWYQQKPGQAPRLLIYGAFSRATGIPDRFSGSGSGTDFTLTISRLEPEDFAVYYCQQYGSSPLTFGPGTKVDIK 2.4 nM

Given the binder 75110_04F22A (antibody, V domains shown, Tested as antibody purified from AlivaMab Mouse hybridoma supernatant (captured by anti-mouse IgG Fc)) VH: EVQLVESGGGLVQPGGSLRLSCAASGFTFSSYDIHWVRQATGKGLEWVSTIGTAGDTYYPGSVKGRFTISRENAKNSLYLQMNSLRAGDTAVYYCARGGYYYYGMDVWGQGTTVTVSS VL: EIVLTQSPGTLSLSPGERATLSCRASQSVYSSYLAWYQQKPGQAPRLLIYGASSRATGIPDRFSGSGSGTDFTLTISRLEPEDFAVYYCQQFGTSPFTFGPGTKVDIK , what is its reported Kd? 7.2 nM
